- method.notes: qHTS of pediatric cancer cell lines to identify multiple opportunities for drug repurposing: Primary screen for BT-37 cells (AID 1347094)
- stated.conditions: BT-37 viability, CellTiter-Glo luminescence, 48 h; series mostly up to 57.3 µM
Inconclusive results are not listed. The source made the active and inactive calls. Calls come from the whole dose curve; as a rule, active = well fitted cell-killing curve with a large enough effect; inconclusive = small, poorly fitted or top-dose-only effect; inactive = flat fitted curve, though single readings scatter.
Outcomes: 1 = active, 0 = inactive

compound	assigned.label
CC(C)[C@H](C(=O)Nc1ccc(C(=O)NO)cc1)c1ccccc1	1
Cc1cc(Nc2cc(NC(=O)c3c(Cl)cccc3Cl)ccn2)nc(N)n1	1
COc1cc2c(Nc3ccc(NC(=O)c4ccccc4)cc3)ncnc2cc1OCCCN1CCOCC1	1
N#CCNC(=O)c1ccc(-c2ccnc(Nc3ccc(N4CCOCC4)cc3)n2)cc1	1
O=c1[nH]c(=O)n(C2CCCO2)cc1F (stereo not given)	0
CCCNC(=O)Nc1ccc(Oc2ncnc3cc(OC)c(OC)cc23)cc1Cl	0
CCN1CCN(CC(=O)Nc2ccc(-c3cccc4c(=O)cc(N5CCOCC5)oc34)c3sc4ccccc4c23)CC1	1
CS(=O)(=O)N1CCN(Cc2cc3nc(-c4cccc5[nH]ncc45)nc(N4CCOCC4)c3s2)CC1	1
CN(C)CCCN=c1c2ccccc2n(C)c2[nH]c(=O)n(C)c(=O)c12	1
CCn1nnc2c(N3CCOCC3)nc(-c3ccc(NC(=O)Nc4ccc(C(=O)N5CCN(C)CC5)cc4)cc3)nc21	1
C=CC(=O)Nc1cccc(Oc2nc(Nc3ccc(N4CCN(C)CC4)cc3OC)ncc2Cl)c1	1
CC=C1NC(=O)[C@H]2CSSCCC=C[C@H](CC(=O)N[C@H](C(C)C)C(=O)N2)OC(=O)[C@H](C(C)C)NC1=O	1
Nc1ccn([C@@H]2CS[C@H](CO)O2)c(=O)n1	0
Clc1cccc(-c2nnnn2Cc2cccnc2)c1Cl	0
O=C(C=Cc1c(C(=O)O)[nH]c2cc(Cl)cc(Cl)c12)Nc1ccccc1	0
CN(C)Cc1c(C(=O)NCCOc2ccc(C(=O)NO)cc2)oc2ccccc12	1
Cc1ccc(S(=O)(=O)Nc2cc(Cl)ccc2C(=O)Nc2nc(-c3ccccc3)cs2)cc1	1
CC(O)C1C(=O)N2C(C(=O)O)=C(SC3CNC(C(=O)N(C)C)C3)C(C)C12 (stereo not given)	0
C=CC(=O)Nc1cc2c(Nc3ccc(F)c(Cl)c3)ncnc2cc1OCCCN1CCOCC1	1
O=C(Nc1ncc(-c2cc(C(F)F)nn2-c2c(Cl)cccc2Cl)s1)C1CC1	1

###

- method.notes: Quantitative High-Throughput drug screen in 47 multiple myeloma cell lines against the NCATS MIPE library collection: JIM1_ECACC cell viability assay (AID 1918964)
- stated.conditions: JIM1 myeloma viability, CellTiter-Glo ATP luminescence, 48 h; series mostly up to 45.8 µM
Results filed as inconclusive are left out. Activity calls are given as the source filed them. Calls follow the shape of the dose curve; as a rule, active = well fitted cell-killing curve with a large enough effect; inconclusive = small, poorly fitted or top-dose-only effect, or effect the other way; inactive = no such curve, though single readings can be large or run the other way.
Outcomes: YES (active), NO (inactive)

compound	assigned.label
CN(C)Cc1c(C(=O)NCCOc2ccc(C(=O)NO)cc2)oc2ccccc12	YES
COc1cc2ncnc(Nc3ccc(F)c(Cl)c3)c2cc1NC(=O)C=CCN1CCCCC1	YES
COc1cc2c(cc1-c1c(C)noc1C)ncc1[nH]c(=O)n([C@H](C)c3ccccn3)c12	YES
O=C(C=Cc1c(C(=O)O)[nH]c2cc(Cl)cc(Cl)c12)Nc1ccccc1	NO
Cc1ccc(C(=O)Nc2cccc(C(F)(F)F)c2)cc1-c1ccc2nc(NCCN3CCOCC3)ncc2c1	YES
CC(C)(C)NC(=O)[C@H]1CN(Cc2cccnc2)CCN1C[C@@H](O)C[C@@H](Cc1ccccc1)C(=O)N[C@H]1c2ccccc2C[C@H]1O	NO
CCN(CC)CCNC(=O)c1ccc2nc(-c3ccccc3)c(-c3ccc(CN4CCC(n5c(=O)[nH]c6ccccc65)CC4)cc3)nc2c1	YES
CC(C)c1cnn2c(NCc3ccccc3)cc(N[C@@H](CO)[C@H](O)CO)nc12	YES
CNC(=O)CN1CCC(Oc2cc3c(Nc4cccc(Cl)c4F)ncnc3cc2OC)CC1	YES
CC[C@H](CO)Nc1nc(NCc2ccccc2)c2ncn(C(C)C)c2n1	YES
O=C(O)c1ccc2cc(-c3ccc(O)c(C45CC6CC(CC(C6)C4)C5)c3)ccc2c1	YES
Nc1ccccc1NC(=O)c1ccc(CNC(=O)OCc2cccnc2)cc1	YES
O=c1[nH]nc(Sc2ncc([N+](=O)[O-])s2)n1-c1ccc2c(c1)OCCO2	YES
CCCCCCCCCC(=O)N[C@@H](Cc1c[nH]c2ccccc12)C(=O)N[C@H](CC(N)=O)C(=O)N[C@@H](CC(=O)O)C(=O)N[C@@H]1C(=O)NCC(=O)N[C@@H](CCCN)C(=O)N[C@@H](CC(=O)O)C(=O)N[C@H](C)C(=O)N[C@@H](CC(=O)O)C(=O)NCC(=O)N[C@H](CO)C(=O)N[C@@H]([C@@H](C)CC(=O)O)C(=O)N[C@@H](CC(=O)c2ccccc2N)C(=O)O[C@@H]1C	NO
CC(C)c1cc(-c2n[nH]c(=O)n2-c2ccc3c(ccn3C)c2)c(O)cc1O	YES
COc1ccc(F)c(F)c1C(=O)c1cnc(NC2CCN(S(C)(=O)=O)CC2)nc1N	YES
